TGT: CDK3 CCNE1 (human) (UniProt Q00526+P24864)
Sequence (P24864 whole entry, looked up): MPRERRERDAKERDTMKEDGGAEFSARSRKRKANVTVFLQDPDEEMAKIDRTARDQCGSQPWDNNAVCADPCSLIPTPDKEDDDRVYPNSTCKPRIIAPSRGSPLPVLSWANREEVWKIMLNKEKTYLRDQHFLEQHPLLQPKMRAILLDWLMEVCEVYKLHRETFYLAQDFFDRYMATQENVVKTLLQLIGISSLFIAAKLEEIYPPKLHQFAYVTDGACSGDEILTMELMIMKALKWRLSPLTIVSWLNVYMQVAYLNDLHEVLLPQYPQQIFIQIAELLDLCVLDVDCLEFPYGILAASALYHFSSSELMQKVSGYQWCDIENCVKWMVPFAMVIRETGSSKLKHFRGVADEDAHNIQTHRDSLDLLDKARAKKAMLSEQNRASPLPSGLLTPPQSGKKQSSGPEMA
Sequence (Q00526 whole entry, looked up): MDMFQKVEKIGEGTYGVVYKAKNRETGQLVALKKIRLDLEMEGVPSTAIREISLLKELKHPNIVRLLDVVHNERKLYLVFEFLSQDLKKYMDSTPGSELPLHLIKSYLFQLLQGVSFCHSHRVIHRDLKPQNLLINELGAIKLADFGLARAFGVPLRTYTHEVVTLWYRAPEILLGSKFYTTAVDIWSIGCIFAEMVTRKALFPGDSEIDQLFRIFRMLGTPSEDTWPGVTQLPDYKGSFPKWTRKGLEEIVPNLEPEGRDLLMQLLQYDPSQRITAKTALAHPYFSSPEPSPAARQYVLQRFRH
METHOD NOTES: radiometric filter-binding kinase assay, Kinase HotSpot
SETUP CONDITIONS: compound 0.5 µM; ATP 10 µM
READOUT NAME: residual activity
Please report the result as a number followed by the unit.

| SMILES STRING | READOUT NAME | OBS VALUE |
| --- | --- | --- |
| CCN(CC)C(=O)c1ccc(Nc2nc(OCC3CCCCC3)c3nc[nH]c3n2)cc1 | residual activity | 90.4% |
| Nc1ncnc2[nH]nc(Nc3ccc(F)cc3)c12 | residual activity | 104% |

Lookup result for Cc1ccc(NC2=CC(=O)c3sc(C)nc3C2=O)cc1 ; measured residual activity: 88.5%

Lookup result for CC(C)N(CCC(=O)c1ccc2ccccc2c1)Cc1ccccc1 ; measured residual activity: 91.4%

Lookup result for CC[n+]1c(/C=C/N(C)c2ccccc2)n(-c2ccccc2)c2ccc(-c3nc4ccccc4s3)cc21 ; measured residual activity: 92.2%

Lookup result for N#C/C(=C(/N)Sc1ccc(N)cc1)c1ccccc1C(F)(F)F ; measured residual activity: 105%

Lookup result for Nc1ccc2ncnc(NCCc3ccc(Oc4ccccc4)cc3)c2c1 ; measured residual activity: 94.8%

Lookup result for COC[C@H]1OC(=O)c2coc3c2[C@@]1(C)C1=C(C3=O)[C@@H]2CCC(=O)[C@@]2(C)C[C@H]1OC(C)=O ; measured residual activity: 95.2%

Lookup result for CC#CC(=O)Nc1cc2c(Nc3ccc(F)c(Cl)c3)ncnc2cn1 ; measured residual activity: 96.8%

Lookup result for CC(=O)c1ccc(N2CCOCC2)cc1O ; measured residual activity: 102%

Lookup result for O=c1cc(N2CCOCC2)oc2c1ccc1ccccc12 ; measured residual activity: 102%
